# PROTOCOL_DESCRIPTION: Encapsulation efficiency of lipid nanoparticles (Quant-it RiboGreen RNA Assay)
# Assay type: physicochemical
# REPORTED_CONDITIONS: lipid nanoparticles with luciferase mRNA
PROPERTY_NAME: Encapsulation efficiency (%)

molecule="CCCCCCCCCOC(=O)CCC(C)(C)CCCCN(CCO)CCCCCCOC(=O)OCC(CCCCCCC)CCCCCCC [46a]" result=93.03
molecule="CCCCCCCCCCOC(=O)CCCC(C)(C)CCN(CCO)CCCCCCCC(=O)OCCC(CCCCCC)CCCCCC [28a]" result=93.90
molecule="CCCCCC#CCCOC(=O)CCCCCCCN(CCO)CCCCCCC(C)(C)C(=O)OC(CCCCCCCC)CCCCCCCC [55a]" result=73.85
molecule="CCCCCCCCCOC(=O)CCCCC(C)(C)CCN(CCO)CCCCCCCC(=O)OCCC(CCCCCC)CCCCCC [27a]" result=93.52
molecule=CCCCCCCCCC(=O)OCC(C)(C)CCCCCN(CCCCO)CCCCCCCC(=O)OC(CCCCCCCC)CCCCCCCC result=74.43
molecule="CCCCCCCCCOC(=O)CCCCC(C)(C)CCN(CCO)CCCCCCC(=O)OCC(CCCCCCCC)CCCCCCCC [70a]" result=96.69
molecule="CCCCCCCCCOC(=O)CCCCCCCN(CCO)CCCCC(C)(C)CCC(=O)OC(CCCCCCCC)CCCCCCCC [20a]" result=87.83
molecule="CCCCCCCCCOC(=O)CCCCC(C)(C)CCN(CCO)CCCCCC(=O)OCC(CCCCCCCCC)CCCCCCCCC [69a]" result=96.65

----------
# PROTOCOL_DESCRIPTION: Particle size and PDI of lipid nanoparticles by dynamic light scattering
# Type: physicochemical
# REPORTED_CONDITIONS: lipid nanoparticles with luciferase mRNA; ionizable lipid/cholesterol/DSPC/DMG-PEG2000 50/38.5/10/1.5 mol%
PROPERTY_NAME: Particle size (nm)

compound="CCCCCCCCCCCC(=O)OCC(C)(C)CCCCCN(CCCCO)CCCCCCC(=O)OCC(CCCCCCCCCC)CCCCCCCCCC [91b]" result_unit=nm result=96.43

1: CCCCCCCCCOC(=O)CCCCC(C)(C)CCN(CCO)CCCCCCCC(=O)OC(CCCCCCCC)CCCCCCCC [25a]
2: CCCCCCCCCC(=O)OCCCC(C)(C)CCCN(CCCCO)CCCCCCCCC(=O)OCC(CCCCCC)CCCCCC [113b]
Smaller Particle size (nm) value? Options are 1 and 2 Write down the label of the entry you select. 1
(1: 86.99 nm, 2: 147.03 nm)

----------
# PROTOCOL_DESCRIPTION: Encapsulation efficiency of lipid nanoparticles (Quant-it RiboGreen RNA Assay)
# Format: physicochemical
# REPORTED_CONDITIONS: lipid nanoparticles with luciferase mRNA
PROPERTY_NAME: Encapsulation efficiency (%)

molecule="CCCCCCCCCC(=O)OCCCC(C)(C)CCCN(CCCCO)CCCCCCC(=O)OCCC(CCCCCCC)CCCCCCC [93b]" result_unit=% result=90.17
molecule="CCCCCCCCCCOC(=O)OCCCCCCN(CCO)CCCCCC(C)(C)COC(=O)CCC(CCCCCC)CCCCCC [26b]" result_unit=% result=94.58
molecule="CCCCCCCCCC(=O)OCCCCCCCN(CCO)CCCCC(C)(C)COC(=O)OCC(CCCCCCC)CCCCCCC [25b]" result_unit=% result=95.59
molecule="CCCCCCCCCCCOC(=O)CCCCCN(CCO)CCCCCCC(C)(C)C(=O)OCC(CCCCCCC)CCCCCCC [14a]" result_unit=% result=91.67
molecule="CCCCCCCCCOC(=O)C(C)(C)CCCCCCN(CCO)CCCCCCOC(=O)OCCCCC(CCCC)CCCC [43a]" result_unit=% result=97.03
molecule="CCCCCCCCCCC(=O)OCCC(C)(C)CCCCN(CCCO)CCCCCCCC(=O)OCC(CCCCCCCC)CCCCCCCC [100b]" result_unit=% result=91.14
molecule="CCCCCCCCCCC(=O)OCCCC(C)(C)CCCN(CCO)CCCCCCC(=O)OCC(CCCCCCCCC)CCCCCCCCC [95b]" result_unit=% result=95.41
molecule="CCCCCCCCCOC(=O)OCCCCCCN(CCO)CCCCCCC(C)(C)C(=O)OCCCC(CCCCC)CCCCC [35a]" result_unit=% result=95.00
molecule="CCCCCCCCCCC(=O)OCCC(C)(C)CCCCN(CCCCO)CCCCCCCC(=O)OCC(CCCCCCCC)CCCCCCCC [101b]" result_unit=% result=81.76
molecule="CCCCCCCCCCOC(=O)CCCCCCCN(CCO)CCCCCC(C)(C)COC(=O)CC(CCCCCCC)CCCCCCC [19b]" result_unit=% result=83.01
molecule="CCCCCCCCCC(=O)OCC(C)(C)CCCCCN(CCCCO)CCCCCCC(=O)OCCC(CCCCCCC)CCCCCCC [70b]" result_unit=% result=96.91
molecule="CCCCCCCCCC(=O)OCC(C)(C)CCCCCN(CCO)CCCCCCCC(=O)OCC(CCCCCCC)CCCCCCC [13b]" result_unit=% result=89.27
molecule="CCCCCC/C=C\\COC(=O)CCCCCCCN(CCO)CCCCCCC(C)(C)C(=O)OC(CCCCCCCC)CCCCCCCC [57a]" result_unit=% result=95.41
molecule="CCCCCCCCCC(=O)OCC(C)(C)CCCCCN(CCO)CCCCCCCC(=O)OC(CCCCCCCCC)CCCCCCCCC [51b]" result_unit=% result=95.92
molecule="CCCCCCCCCC(=O)OCCC(C)(C)CCCCN(CCO)CCCCCCCC(=O)OCC(CCCCCCC)CCCCCCC [56b]" result_unit=% result=93.87
molecule="CCCCCCCCCC(=O)OCCCC(C)(C)CCCN(CCO)CCCCCCCC(=O)OCCC(CCCCCC)CCCCCC [71b]" result_unit=% result=95.95
molecule="CCCCCCCCCOC(=O)OCCCCCCN(CCO)CCCCC(C)(C)CCC(=O)OCC(CCCCCCC)CCCCCCC [44a]" result_unit=% result=96.84
molecule="CCCCCCCCCC(=O)OCCCC(C)(C)CCCN(CCO)CCCCCCC(=O)OCCCC(CCCCCC)CCCCCC [75b]" result_unit=% result=95.99
molecule="CCCCCCCCCC(=O)OCC(C)(C)CCCCCN(CCCCO)CCCCCCCC(=O)OC(CCCCCCCCC)CCCCCCCCC [52b]" result_unit=% result=90.84
molecule="CCCCCCCCCCC(=O)OCCC(C)(C)CCCCN(CCO)CCCCCCCC(=O)OC(CCCCCCCCC)CCCCCCCCC [54b]" result_unit=% result=96.69
molecule="CCCCCCCCCOC(=O)OCCCCCCN(CCO)CCCCCCC(C)(C)C(=O)OCC(CCCCCCC)CCCCCCC [33a]" result_unit=% result=86.98
molecule="CCCCCCCCCC(=O)OCC(C)(C)CCCCCN(CCCCO)CCCCCCOC(=O)OCC(CCCCCCCC)CCCCCCCC [35b]" result_unit=% result=96.35
molecule="CCCCCCCCCCCOC(=O)OCCCCCN(CCCCO)CCCCCC(C)(C)COC(=O)CC(CCCCCCC)CCCCCCC [31b]" result_unit=% result=95.73
molecule="CCCCCCCCCC(=O)OCC1(CCCCCN(CCCCO)CCCCCCCC(=O)OC(CCCCCCCC)CCCCCCCC)CC1 [15b]" result_unit=% result=69.69
molecule="CCCCCCCCCC(=O)OCCC(C)(C)CCCCCN(CCO)CCCCCCCCC(=O)OCC(CCCCCCC)CCCCCCC [107b]" result_unit=% result=94.05
molecule="CCCCCCCCCC(=O)OCCC(C)(C)CCCCN(CCCO)CCCCCCC(=O)OCCC(CCCCCCC)CCCCCCC [103b]" result_unit=% result=94.07
molecule="CCCCCCCCCCC(=O)OCCCC(C)(C)CCCN(CCO)CCCCCCCCC(=O)OCC(CCCCCCC)CCCCCCC [96b]" result_unit=% result=92.10
molecule="CCCCCCCCCCCOC(=O)CCCCCN(CCO)CCCCCCC(C)(C)C(=O)OC(CCCCCCCC)CCCCCCCC [3a]" result_unit=% result=94.23
molecule="CCCCCCCCCC(=O)OCCCC(C)(C)CCCN(CCCO)CCCCCCC(=O)OCC(CCCCCCCC)CCCCCCCC [82b]" result_unit=% result=90.71
molecule="CCCCCCCCCC(=O)OCCCC(C)(C)CCCN(CCCO)CCCCCCC(=O)OCCC(CCCCCCC)CCCCCCC [92b]" result_unit=% result=92.47
molecule="CCCCCCCCCCCOC(=O)CCCCC(C)(C)CCN(CCO)CCCCCCCC(=O)OC(CCCCCCCCCC)CCCCCCCCCC [64a]" result_unit=% result=96.72

Just for reference, patent US12617752B2 is where these values come from.
